Tested on: Klebsiella aerogenes
protocol notes: Antimicrobial activity against Enterobacter aerogenes EA298 after 18 hrs by rapid INT colorimetric assay
Assay type: functional
experimental parameters: EA298, 18 h
Residues, ends and D or L forms follow the SMILES beside them. *: point of attachment. βNA = c1ccc2cc(N*)ccc2c1
experimental endpoint: MIC

CCn1cc(C(=O)O)c(=O)c2cc(F)c(N3CCNCC3)cc21 [NORFLOXACIN] : 8 µg/mL
O=C(N[C@H](CO)[C@H](O)c1ccc([N+](=O)[O-])cc1)C(Cl)Cl [CHLORAMPHENICOL] : 64 µg/mL
N=C(N)NCCC[C@H](NC(=O)[C@@H](N)Cc1ccccc1)C(=O)Nc1ccc2ccccc2c1 [PABETAN] (H-Phe-Arg-βNA) : > 256 µg/mL
CC1=C(c2c(C)cc(O)c3c2C(=O)C(c2c(O)c4c(C)cccc4oc2=O)=C(c2c(O)c4c(C)cccc4oc2=O)C3=O)C(=O)c2c(O)cccc2C1=O [DIOSPYRONE] : 32 µg/mL

Query :: Would you kindly share the measured MIC for CC(C)=CCc1c(O)ccc(C(=O)/C=C/c2ccc(O)cc2)c1O [ISOBAVACHALCONE] ?
Result :: 8 µg/mL

# credit: ChEMBL document CHEMBL1255429
